Assay: Half life in mouse liver microsomes at 1 uM up to 60 mins in presence of NADPH by LC-MS/MS analysis
Format: ADME, Microsome
QUANTITY NAME: half-life at 1 µM (min)

compound_structure_string=CCOC(=O)c1ccc(-n2c(/C=C3\OC(=O)c4c3cc(C)[nH]c4=O)ccc2CO)cc1 reported_value=9

====

Assay: Inhibition of Saccharomyces cerevisiae alpha-glucosidase assessed as reduction in p-nitrophenol release using p-nitrophenyl glycoside as substrate by spectrophotometric analysis
pIC50: −log10 of the molar value.
QUANTITY NAME: pIC50

compound_structure_string=OC[C@H]1NC[C@@H](O)[C@@H]1O reported_value=6.82
